Listed below: MIC values for each entry.
# Test system: Salmonella enterica serovar Typhimurium SL1344
# experimental-parameters: LPM pH 5.8
Where a name gives a salt, the structure may show the parent alone.

compound="CN(C)[C@@H]1C(O)=C(C(N)=O)C(=O)[C@@]2(O)C(O)=C3C(=O)c4c(O)ccc(Cl)c4[C@@H](O)[C@H]3C[C@@H]12 [DEMECLOCYCLINE HYDROCHLORIDE]" measured_target="Salmonella enterica serovar Typhimurium SL1344" readout_label=MIC result="≤ 0.78 µM"

Which MIC is listed for CN1CCN(c2c(F)cc3c(=O)c(C(=O)O)cn4c3c2SCC4)CC1 [RUFLOXACIN HYDROCHLORIDE] ?
6.25 µM

Which MIC is listed for CC[C@H]1OC(=O)[C@H](C)C(=O)[C@H](C)[C@@H](O[C@@H]2O[C@H](C)C[C@H](N(C)C)[C@H]2O)[C@](C)(OC)C[C@@H](C)C(=O)[C@H](C)[C@H]2N(CCCCn3cnc(-c4cccnc4)c3)C(=O)O[C@]12C ?
> 50 µM
